The measured values listed here are drawn from patent US3970651A.

test: in vivo; conditions: dog, po, 30 mg/kg
measured attribute: concentration at 6 h

### Prompt Looking for the measured concentration at 6 h of N[C@@H](C(=O)NC1C(=O)N2C(C(=O)O)=C(CSc3c[nH]nn3)CSC12)c1ccc(O)cc1 (stereo partly shown) [BL-S640 propylene glycolate] , can you help?
### Response 3200 ng/mL

---

experiment: in vivo; settings: dog, po, 30 mg/kg
measured attribute: concentration at 0.25 h (ng/mL)
State just the number; it will be interpreted in ng/mL.

### Prompt Entry N[C@@H](C(=O)NC1C(=O)N2C(C(=O)O)=C(CSc3c[nH]nn3)CSC12)c1ccc(O)cc1 (stereo partly shown) [BL-S640 propylene glycolate] : reported concentration at 0.25 h = ?
### Response 300

---

Experiment: in vivo
Settings: dog, po, 30 mg/kg
Method: Three beagle dogs (mean weight of 8.2 ± 0.4 kg.) were administered 200 mesh 7-[D-α-amino-α-(p-hydroxyphenyl)acetamido]-3-(1,2,3-triazol-5-ylthiomethyl)-3-cephem-4-carboxylic acid propylene glycolate (bioassay 820 mcg./mgm.) orally at doses of 30 mg. of activity/kg. in hard gelatin capsules. All doses and concentrations reported herein are in terms of the amphoteric material and were corrected for differences in biopotency.
measured attribute: concentration at 0.5 h (ng/mL)
# value in ng/mL; strip the unit string

### Prompt Sample N[C@@H](C(=O)NC1C(=O)N2C(C(=O)O)=C(CSc3c[nH]nn3)CSC12)c1ccc(O)cc1 (stereo partly shown) [BL-S640 propylene glycolate] — what was its concentration at 0.5 h?
### Response 5900

---

test: in vivo; conditions: dog, po, 30 mg/kg
measured attribute: concentration at 1.5 h
In your response, put the unit directly after the numeric value.

### Prompt Query: concentration at 1.5 h; subject: N[C@@H](C(=O)NC1C(=O)N2C(C(=O)O)=C(CSc3c[nH]nn3)CSC12)c1ccc(O)cc1 (stereo partly shown) [BL-S640 propylene glycolate]
### Response 17700 ng/mL

---

assay: Water solubility; assay type: physicochemical; settings: in water at 23° C.
measured attribute: solubility

### Prompt Any idea what its solubility is? The compound is N[C@@H](C(=O)NC1C(=O)N2C(C(=O)O)=C(CSc3c[nH]nn3)CSC12)c1ccc(O)cc1 (stereo partly shown) [BL-S640 propylene glycolate]
### Response ~10000 µg/mL

---

Assay: in vivo
Conditions: dog, po, 30 mg/kg
Method: Three beagle dogs (mean weight of 8.2 ± 0.4 kg.) were administered 200 mesh 7-[D-α-amino-α-(p-hydroxyphenyl)acetamido]-3-(1,2,3-triazol-5-ylthiomethyl)-3-cephem-4-carboxylic acid propylene glycolate (bioassay 820 mcg./mgm.) orally at doses of 30 mg. of activity/kg. in hard gelatin capsules. All doses and concentrations reported herein are in terms of the amphoteric material and were corrected for differences in biopotency.
measured attribute: concentration at 2 h (ng/mL)
Just the number please, in ng/mL, no unit attached.

### Prompt // lookup concentration at 2 h for N[C@@H](C(=O)NC1C(=O)N2C(C(=O)O)=C(CSc3c[nH]nn3)CSC12)c1ccc(O)cc1 (stereo partly shown) [BL-S640 propylene glycolate]
### Response 18700

---

experiment: Heat stability / loss of bioactivity of the solid on storage at elevated temperatures; details: solid
measured attribute: degraded at 720 h

### Prompt Find the recorded degraded at 720 h belonging to N[C@@H](C(=O)NC1C(=O)N2C(C(=O)O)=C(CSc3c[nH]nn3)CSC12)c1ccc(O)cc1 (stereo partly shown) [BL-S640 propylene glycolate] and report it.
### Response < 10%

---

assay: in vivo; settings: dog, po, 30 mg/kg
measured attribute: concentration at 1.05 h (ng/mL)
The response must be a number in ng/mL with no trailing unit.

### Prompt Name the reported concentration at 1.05 h value associated with the compound N[C@@H](C(=O)NC1C(=O)N2C(C(=O)O)=C(CSc3c[nH]nn3)CSC12)c1ccc(O)cc1 (stereo partly shown) [BL-S640 propylene glycolate]
### Response 8400

---

Assay: in vivo
Conditions: dog, po, 30 mg/kg
Experimental: Three beagle dogs (mean weight of 8.2 ± 0.4 kg.) were administered 200 mesh 7-[D-α-amino-α-(p-hydroxyphenyl)acetamido]-3-(1,2,3-triazol-5-ylthiomethyl)-3-cephem-4-carboxylic acid propylene glycolate (bioassay 820 mcg./mgm.) orally at doses of 30 mg. of activity/kg. in hard gelatin capsules. All doses and concentrations reported herein are in terms of the amphoteric material and were corrected for differences in biopotency.
measured attribute: concentration at 4 h (ng/mL)
Report only the number, with the unit ng/mL understood.

### Prompt I would be grateful if you could share the reported concentration at 4 h for N[C@@H](C(=O)NC1C(=O)N2C(C(=O)O)=C(CSc3c[nH]nn3)CSC12)c1ccc(O)cc1 (stereo partly shown) [BL-S640 propylene glycolate] .
### Response 8400

---

Assay: in vivo
Details: dog, po, 30 mg/kg
Protocol: Three beagle dogs (mean weight of 8.2 ± 0.4 kg.) were administered 200 mesh 7-[D-α-amino-α-(p-hydroxyphenyl)acetamido]-3-(1,2,3-triazol-5-ylthiomethyl)-3-cephem-4-carboxylic acid propylene glycolate (bioassay 820 mcg./mgm.) orally at doses of 30 mg. of activity/kg. in hard gelatin capsules. All doses and concentrations reported herein are in terms of the amphoteric material and were corrected for differences in biopotency.
measured attribute: concentration at 8 h (ng/mL)
Write the number in ng/mL without appending the unit.

### Prompt Query (molecule): N[C@@H](C(=O)NC1C(=O)N2C(C(=O)O)=C(CSc3c[nH]nn3)CSC12)c1ccc(O)cc1 (stereo partly shown) [BL-S640 propylene glycolate] ; field requested: concentration at 8 h
### Response 1600

---

test: in vivo; details: dog, po, 30 mg/kg
measured attribute: half-life

### Prompt Bench note: what half-life did N[C@@H](C(=O)NC1C(=O)N2C(C(=O)O)=C(CSc3c[nH]nn3)CSC12)c1ccc(O)cc1 (stereo partly shown) [BL-S640 propylene glycolate] show?
### Response ~1.36 h
